- Target Entity: T1, biotinylated nerve growth factor (NGF) (Homo sapiens, UniProt P01138, biotin (biotinylated in-house, sites not stated))
- T1 construct: nerve growth factor (NGF), human; R&D Systems 256-GF; also called human nerve growth factor; source: bought: R&D Systems (256-GF), biotinylated in-house
- T1 sequence (P01138 122-241): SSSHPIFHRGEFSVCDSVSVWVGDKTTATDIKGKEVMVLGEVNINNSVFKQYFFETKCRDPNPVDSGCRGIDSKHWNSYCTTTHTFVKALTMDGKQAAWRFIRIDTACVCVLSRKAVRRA
- Test Protocol: AlphaScreen or HTRF; epitope competition assay: biotinylated NGF (detected by streptavidin Europium cryptate) and DyLight650-labelled IgGWFL with increasing concentrations of test IgG; relative affinity
- Particulars: both partners purified

Binder	binding result
evolved scFvWFL variant 128 reformatted as IgG1 (antibody, V domains shown, retains W35, F36 and L64; human IgG1 heavy chain constant region of the TM-YTE IgG1 expression vector; human light chain constant region of the expression vector; IgG1, TM-YTE backbone; retains the original WFL residues (W35, F36 and L64); source: HEK293/EBNA, co-transfected, purified from the culture medium (Protein A)) VH: QVQLVQSGAEVKKPGSSVKVSCKASGGTFWFGAFTWVRQAPGQGLEWMGGIIPIFGLTNLAQNFQGRVTITADESTSTVYMELSSLRSEDTAVYYCARSSRIYDLNPSLTADYDMDVWGQGTMVTVSS VL: QSVLTQPPSVSAAPGQEVTISCSGSSSDIGNNYVSWYQQPPGAAPKLLIYDNNKRPSGIPDRFSGSKSGTSATLGITGLQTGDEADYYCGTWDSSLSAWVFGGGTKLTVL	binds
evolved scFvWFL variant 59 reformatted as IgG1 (antibody, V domains shown, human IgG1 heavy chain constant region of the TM-YTE IgG1 expression vector; human light chain constant region of the expression vector; IgG1, TM-YTE backbone; selected by the TPBLA from an error-prone PCR library of scFvWFL; source: HEK293/EBNA, co-transfected, purified from the culture medium (Protein A)) VH: QVQLVQSGAEVKKPGSSVKVSCKASGGTFRFGAFTWARQAPGQGLEWMGGIIPIFGLTNLAQNFQGRATITADESTSTVYMELSSLRSEDTAVYYCARSSRIYDLNPSLTAYYDMDVWGQGTMVTVSS VL: QSVLTQPPSVSAAPGQKVTISCSGSSSDIGNNYVSWYQQLPGTAPKLLTYDNNKRPSGIPGRFSGSKSGTSATLGITGLQTGDEADYYCGTWDSSLSAWVFGGGTKLTVL	binds
MEDI578 (the parent antibody prior to affinity maturation into MEDI1912) (antibody, V domains shown, VH of MEDI578; VL of MEDI578; The entry is printed as 5J7Z in the methods; also called IgG_(MEDI578)) VH: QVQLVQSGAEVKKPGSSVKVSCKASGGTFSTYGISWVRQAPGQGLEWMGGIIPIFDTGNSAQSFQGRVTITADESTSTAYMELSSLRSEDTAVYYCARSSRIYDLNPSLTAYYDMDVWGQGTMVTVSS VL: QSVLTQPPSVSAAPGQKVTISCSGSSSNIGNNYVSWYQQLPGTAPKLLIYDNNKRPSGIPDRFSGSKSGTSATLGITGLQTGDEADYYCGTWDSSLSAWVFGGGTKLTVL	binds
